system: E faecalis; assay: Microdilution antimicrobial susceptibility test (MIC); type: cell-based; details: broth microdilution, 18-24 h, MIC = 90% inhibition of growth

MOLECULE | TEST_TARGET | COMPARATIVE_SIGN | MIC E faecalis MIC2 (µg/mL)
O=[N+]([O-])c1ccc(-c2nnc(S)n2C2CCCCC2)o1 [Compound 137] | E faecalis | = | 32
O=[N+]([O-])c1ccc(-c2nnc(S)n2Cc2ccco2)o1 [Compound 125] | E faecalis | = | 64
O=[N+]([O-])c1ccc(-c2nnc(S(=O)(=O)O)n2-c2ccc(Cl)cc2)o1 [Compound 132] | E faecalis | > | 64
CCCCn1c(S)nnc1-c1ccc([N+](=O)[O-])o1 [Compound 133] | E faecalis | > | 64
C=CCn1c(S)nnc1-c1ccc([N+](=O)[O-])o1 [Compound 130] | E faecalis | = | 64
O=[N+]([O-])c1ccc(-c2nnc(S)n2-c2ccc(F)cc2)o1 [Compound 136] | E faecalis | = | 64
Cn1c(SCC#N)nnc1-c1ccc([N+](=O)[O-])o1 [Compound 121] | E faecalis | = | 64
O=[N+]([O-])c1ccc(-c2nnc(S)n2CCCN2CCOCC2)o1 [Compound 120] | E faecalis | = | 64
O=[N+]([O-])c1ccc(-c2nnc(S)n2-c2ccc(Br)cc2)o1 [Compound 141] | E faecalis | = | 2
Cn1c(-c2ccc([N+](=O)[O-])o2)nnc1S(=O)(=O)Nc1ccccc1 [Compound 123] | E faecalis | = | 64
O=[N+]([O-])c1ccc(-c2nnc(S)n2-c2ccccc2)o1 [Compound 134] | E faecalis | = | 64

----------
test system: S cerevisiae

COMPOUND | COMPARATIVE_SIGN | MIC, µg/mL
Nn1c(S)nnc1-c1ccc([N+](=O)[O-])o1 [Compound 110] | = | 64
CCn1c(S)nnc1-c1ccc([N+](=O)[O-])o1 [Compound 126] | > | 64
Cn1c(S)nnc1-c1ccc([N+](=O)[O-])o1 [Compound 122] | = | 32
CSc1nnc(-c2ccc([N+](=O)[O-])o2)n1C [Compound 124] | = | 16
Cn1c(-c2ccc([N+](=O)[O-])o2)nnc1S(=O)(=O)O [Compound 107] | = | 64
O=[N+]([O-])c1ccc(-c2nnc(S)n2-c2ccc(Cl)cc2)o1 [Compound 139] | = | 32
O=[N+]([O-])c1ccc(-c2nnc(S)[nH]2)o1 [Compound 117] | > | 64

----------
system: Bacteroides thetaiotaomicron; type: cell-based; conditions: agar dilution, anaerobic, 48 h
Entries and their MIC Bacteroides thetaiotaomicron values follow.
EXPERIMENTAL_ENDPOINT: MIC Bacteroides thetaiotaomicron (µg/mL)

COMPOUND | EXPERIMENTAL_ENDPOINT | ENDPOINT_UNIT | COMPARATIVE_SIGN | TEST_RESULT
Cn1c(S)nnc1-c1ccc([N+](=O)[O-])o1 | MIC Bacteroides thetaiotaomicron | µg/mL | < | 0.125
CC[C@H]1OC(=O)[C@H](C)[C@@H](O[C@H]2C[C@@](C)(OC)[C@@H](O)[C@H](C)O2)[C@H](C)[C@@H](O[C@@H]2O[C@H](C)C[C@H](N(C)C)[C@H]2O)[C@](C)(O)C[C@@H](C)CN(C)[C@H](C)[C@@H](O)[C@]1(C)O | MIC Bacteroides thetaiotaomicron | µg/mL | = | 4
CCN1CCN(C(=O)N[C@@H](C(=O)N[C@@H]2C(=O)N3[C@@H]2SC(C)(C)[C@@H]3C(=O)O)c2ccccc2)C(=O)C1=O | MIC Bacteroides thetaiotaomicron | µg/mL | = | 16
O=C1CN(/N=C/c2ccc([N+](=O)[O-])o2)C(=O)N1 [Nitrofurantoin, reference compound] | MIC Bacteroides thetaiotaomicron | µg/mL | = | 2
C[C@@H](O)[C@H]1C(=O)N2C(C(=O)O)=C(SCCN=CN)C[C@H]12 | MIC Bacteroides thetaiotaomicron | µg/mL | < | 0.125
O=C(N[C@H](CO)[C@H](O)c1ccc([N+](=O)[O-])cc1)C(Cl)Cl | MIC Bacteroides thetaiotaomicron | µg/mL | = | 4

----------
test system: Bacteroides fragilis; test: Antimicrobial agar dilution test of anaerobic bacteria (MIC); format: cell-based; details: 48 h, third B. fragilis column
Entries and their MIC Bacteroides fragilis values follow.

COMPOUND | TEST_TARGET | MIC Bacteroides fragilis
CC[C@H]1OC(=O)[C@H](C)[C@@H](O[C@H]2C[C@@](C)(OC)[C@@H](O)[C@H](C)O2)[C@H](C)[C@@H](O[C@@H]2O[C@H](C)C[C@H](N(C)C)[C@H]2O)[C@](C)(O)C[C@@H](C)CN(C)[C@H](C)[C@@H](O)[C@]1(C)O | Bacteroides fragilis | 4 µg/mL
O=C1CN(/N=C/c2ccc([N+](=O)[O-])o2)C(=O)N1 [Nitrofurantoin, reference compound] | Bacteroides fragilis | 2 µg/mL
O=C(N[C@H](CO)[C@H](O)c1ccc([N+](=O)[O-])cc1)C(Cl)Cl | Bacteroides fragilis | 4 µg/mL

----------
Target or system H influenzae: recorded MIC listed per item.
EXPERIMENTAL_ENDPOINT: MIC (µg/mL)

COMPOUND | TEST_TARGET | EXPERIMENTAL_ENDPOINT | COMPARATIVE_SIGN | TEST_RESULT
Nn1c(S)nnc1-c1ccc([N+](=O)[O-])o1 [Compound 110] | H influenzae | MIC | = | 8
O=[N+]([O-])c1ccc(-c2nnc(S)n2-c2ccc(Cl)cc2)o1 [Compound 139] | H influenzae | MIC | = | 2
CCn1c(S)nnc1-c1ccc([N+](=O)[O-])o1 [Compound 126] | H influenzae | MIC | = | 32
CSc1nnc(-c2ccc([N+](=O)[O-])o2)n1C [Compound 124] | H influenzae | MIC | = | 8
Cn1c(SCCCO)nnc1-c1ccc([N+](=O)[O-])o1 [Compound 116] | H influenzae | MIC | = | 16
O=C1CN(/N=C/c2ccc([N+](=O)[O-])o2)C(=O)N1 [Nitrofurantoin, reference compound] | H influenzae | MIC | = | 4
COc1cc(Cc2cnc(N)nc2N)cc(OC)c1OC [Trimethoprim, reference compound] | H influenzae | MIC | < | 0.12
O=[N+]([O-])c1ccc(-c2nnc(S)[nH]2)o1 [Compound 117] | H influenzae | MIC | = | 8
Cn1c(-c2ccc([N+](=O)[O-])o2)nnc1S(=O)(=O)O [Compound 107] | H influenzae | MIC | = | 16
Cn1c(S)nnc1-c1ccc([N+](=O)[O-])o1 [Compound 122] | H influenzae | MIC | = | 8
CNS(=O)(=O)c1nnc(-c2ccc([N+](=O)[O-])o2)n1C [Compound 106] | H influenzae | MIC | = | 32

----------
Entries and their MIC P aeruginosa MIC2 values follow.
test system: P aeruginosa; assay: Microdilution antimicrobial susceptibility test (MIC); format: cell-based; details: broth microdilution, 18-24 h, MIC = 90% inhibition of growth
EXPERIMENTAL_ENDPOINT: MIC P aeruginosa MIC2

MOLECULE | TEST_RESULT
O=[N+]([O-])c1ccc(-c2nnc(S(=O)(=O)O)n2-c2ccc(Cl)cc2)o1 [Compound 132] | >64 µg/mL
O=[N+]([O-])c1ccc(-c2nnc(S)n2-c2cccc(Cl)c2)o1 [Compound 140] | >64 µg/mL
O=[N+]([O-])c1ccc(-c2nnc(S(=O)(=O)O)n2-c2ccccc2)o1 [Compound 127] | >64 µg/mL
Cn1c(-c2ccc([N+](=O)[O-])o2)nnc1S(=O)(=O)Nc1ccccc1 [Compound 123] | >64 µg/mL

----------
Entries and their MIC Bacteroides fragilis values follow.
tested on: Bacteroides fragilis; test: Antimicrobial agar dilution test of anaerobic bacteria (MIC); format: cell-based; conditions: 48 h, third B. fragilis column

SMILES_INPUT | MIC Bacteroides fragilis
Cn1c(S)nnc1-c1ccc([N+](=O)[O-])o1 | < 0.125 µg/mL
C[C@@H](O)[C@H]1C(=O)N2C(C(=O)O)=C(SCCN=CN)C[C@H]12 | < 0.125 µg/mL
CCC[C@@H]1C[C@@H](C(=O)N[C@@H]([C@H]2O[C@H](SC)[C@H](O)[C@@H](O)[C@H]2O)[C@H](C)Cl)N(C)C1 | 1 µg/mL
CCN1CCN(C(=O)N[C@@H](C(=O)N[C@@H]2C(=O)N3[C@@H]2SC(C)(C)[C@@H]3C(=O)O)c2ccccc2)C(=O)C1=O | 2 µg/mL

----------
Target or system E coli: recorded log10 of MIC listed per item.
EXPERIMENTAL_ENDPOINT: log10 of MIC (log10 of the value in µg/mL)

COMPOUND | TEST_RESULT
Cn1c(-c2ccc([N+](=O)[O-])o2)nnc1S(=O)(=O)O [Compound 107] | 0.30
Cn1c(S)nnc1-c1ccc([N+](=O)[O-])o1 [Compound 122] | 0.60
Nn1c(S)nnc1-c1ccc([N+](=O)[O-])o1 [Compound 110] | 1.20
CSc1nnc(-c2ccc([N+](=O)[O-])o2)n1C [Compound 124] | 1.81
COc1cc(Cc2cnc(N)nc2N)cc(OC)c1OC [Trimethoprim, reference compound] | -0.60
Cn1c(SCCCO)nnc1-c1ccc([N+](=O)[O-])o1 [Compound 116] | 0.90
CNS(=O)(=O)c1nnc(-c2ccc([N+](=O)[O-])o2)n1C [Compound 106] | 0.90
O=C1CN(/N=C/c2ccc([N+](=O)[O-])o2)C(=O)N1 [Nitrofurantoin, reference compound] | 0.90
